- Tested on: endothelium-ablated specimen of rat thoracic aorta
- method notes: Effect of inhibiting contraction caused by 30 mM K on endothelium-ablated specimen of rat thoracic aorta
- Type: cell-based
- stated conditions: 10 min, cumulative application at intervals of 10 minutes, 37° C., 10^-4 M papaverine = 100% relaxation, read-out: median inhibitory concentration (IC50)
pIC50: −log10 of the molar value.
measured parameter: pIC50

Before answering, review these 6 worked examples.
| compound | pIC50 |
| --- | --- |
| CCC(=O)NN1CC(C)(C)C(=O)c2ccc(OC(F)(F)F)cc21 | 6.98 |
| CC1(C)CN(NC(=O)c2cccnc2)c2cc(C(F)(F)F)ccc2C1=O | 7.18 |
| CC(=O)NN1CC(C)(C)C(=O)c2ccc(S(=O)(=O)C(F)(F)F)cc21 | 7.73 |
| CC1(C)Oc2ccc(C#N)cc2[C@@H](N2CCCC2=O)[C@@H]1O (racemic) [Cromakalim, reference compound] | 6.89 |
| CC(=O)NN1CC(C)(C)C(=O)c2ccc(C(F)(F)F)cc21 | 7.00 |
| CC(=O)NN1CC(C)(C)C(=O)c2ccc(OC(F)(F)F)cc21 | 7.32 |

[1] CC1(C)CN(N2CCCC2=O)c2cc(S(=O)(=O)c3ccccc3)ccc2C1=O
[2] CC1(C)CN(NC(=O)c2cccnc2)c2cc(OC(F)(F)F)ccc2C1=O
# returns the entry with the larger pIC50; inputs 1 and 2 Return value: the label identifying the chosen record.
2
